# System: M19-MEL melanoma
# ASSAY_NAME: NCI tumour cell line growth inhibition, 48 h
PROPERTY: TGI

Consider the molecule shown here: CC12CCC3C(CCC4(O)C=CCCC34C=O)C1(O)CC(O)C2c1ccc(=O)oc1 (centres undefined) What is its recorded TGI? 0.264 µM

Again, but for `O=C(Cc1c(C(=O)Nc2ccccc2)sc(C(=O)Nc2ccccc2)c1CC(=O)Nc1ccccc1)Nc1ccccc1` > 100 µM

Again, but for `CC1=CC=C2C(C)(C)CC[C@@H]3OC(=O)[C@H]1[C@]23C` > 100 µM

Again, but for `CNc1cccc(-c2cc(=O)c3cc4c(cc3[nH]2)OCO4)c1` > 100 µM

Again, but for `S=c1sc2sc(=S)sc2s1` 75.6 µM

Again, but for O=C1C2=C(c3ccccc31)C(c1ccccc1Cl)NC(=S)N2 (centres undefined) > 100 µM

Again, but for `CCNc1nc2c(=O)n(C)c(=O)n(C)c2s1` > 100 µM

Again, but for `CC(=O)Nc1ccc(S(=O)(=O)N/N=C/c2cc(I)cc([N+](=O)[O-])c2O)cc1` > 100 µM

Again, but for `Nc1c2ccccc2nc2nccnc12` > 100 µM

src = PubChem BioAssay (NCI)
